- Test system: aggregation induced by 1-PAF in rabbit platelets
- assay.comment: Effect on the aggregation induced by 1-PAF in rabbit platelets (washed platelets)
- Format: cell-based, rabbit (male, albino, New Zealand)
- assay.conditions: Oryctolagus cuniculus, Platelet, 37° C., 5 min preincubation, 1-PAF=1.92 nM, compounds 10 to 0.1 micM, mean of three experiments in duplicate
pIC50: −log10 of the molar value.
Quick rule for you: pIC50 at 6 or higher means satisfied, lower means not satisfied.

>  <molecule>
CCOC(=O)C1=C(C)NC(C)=C(C(=O)OCCCSc2ccc(Cl)cc2)C1CC (stereo not shown)

>  <category.label>
not satisfied

$$$$
>  <molecule>
COC(=O)C1=C(C)NC(C)=C(C(=O)OCCCOc2ccc(-c3ccccc3)cc2)C1C (stereo not shown)

>  <category.label>
satisfied

$$$$
>  <molecule>
CCOC(=O)C1=C(C)NC(C)=C(C(=O)OCCCSc2ccccc2)C1C (stereo not shown)

>  <category.label>
not satisfied

$$$$
>  <molecule>
COC(=O)C1=C(C)NC(C)=C(C(=O)OCCCSc2ccc(Cl)cc2)C1C (stereo not shown)

>  <category.label>
satisfied

$$$$
>  <molecule>
CCOC(=O)C1=C(C)NC(C)=C(C(=O)OCCS(=O)(=O)c2ccccc2)C1C (stereo not shown)

>  <category.label>
not satisfied

$$$$
>  <molecule>
COC(=O)C1=C(C)NC(C)=C(C(=O)OCCOc2cccc(N(C)C)c2)C1C (stereo not shown)

>  <category.label>
not satisfied

$$$$
>  <molecule>
CCC1C(C(=O)OC)=C(C)NC(C)=C1C(=O)OCCCSc1ccc(C)cc1 (stereo not shown)

>  <category.label>
satisfied

$$$$
>  <molecule>
COC(=O)C1=C(C)NC(C)=C(C(=O)OCCOc2ccc(-c3ccccc3)cc2)C1C (stereo not shown)

>  <category.label>
not satisfied

$$$$

Moving on to another molecule below.
Task: Say whether COC(=O)C1=C(C)NC(C)=C(C(=O)OCCCSc2ccccc2)C1C (stereo not shown) shows pIC50 of 6 or more.
Output: satisfied

====

- System: aggregation induced by 1-PAF in rabbit platelets
- assay.comment: Effect on the aggregation induced by 1-PAF in rabbit platelets (washed platelets)
- Format: cell-based, rabbit (male, albino, New Zealand)
- assay.conditions: Oryctolagus cuniculus, Platelet, 37° C., 5 min preincubation, 1-PAF=1.92 nM, compounds 10 to 0.1 micM, mean of three experiments in duplicate
Catalogue of IC50 values
I'd appreciate it if you included the unit after the number.

>  <compound>
CCOC(=O)C1=C(C)NC(C)=C(C(=O)OCCCOc2cccc(N(C)C)c2)C1C (stereo not shown)

>  <IC50>
2.4 µM

$$$$
>  <compound>
COC(=O)C1=C(C)NC(C)=C(C(=O)OCCCS(=O)(=O)c2ccccc2)C1C (stereo not shown)

>  <IC50>
2.3 µM

$$$$
>  <compound>
COC(=O)C1=C(C)NC(C)=C(C(=O)OCCCSc2ccc3ccccc3c2)C1C (stereo not shown)

>  <IC50>
0.4 µM

$$$$

Continue with the next compound.
Task: Tell me its IC50 given COC(=O)C1=C(C)NC(C)=C(C(=O)OCCCSc2ccc(Cl)c(Cl)c2)C1C (stereo not shown) as the entry.
Output: 0.15 µM

====

- Tested on: aggregation induced by 1-PAF in rabbit platelets
- assay.comment: Effect on the aggregation induced by 1-PAF in rabbit platelets (washed platelets)
- Type: cell-based, rabbit (male, albino, New Zealand)
- assay.conditions: Oryctolagus cuniculus, Platelet, 37° C., 5 min preincubation, 1-PAF=1.92 nM, compounds 10 to 0.1 micM, mean of three experiments in duplicate
Below is a list of entries, each paired with its recorded pIC50 value.
The read-out pIC50 is expressed as -log10 of concentration in moles per litre.

>  <compound>
COC(=O)C1=C(C)NC(C)=C(C(=O)OCCS(=O)(=O)c2ccccc2)C1C (stereo not shown)

>  <target.system>
aggregation induced by 1-PAF in rabbit platelets

>  <reported.result>
5.89

$$$$

Task: State, in one line, measured pIC50 of COC(=O)C1=C(C)NC(C)=C(C(=O)OCCCOc2cccc3ccccc23)C1C (stereo not shown)
Output: 5.96

Task: Identify measured pIC50 corresponding to COC(=O)C1=C(C)NC(C)=C(C(=O)OCCCSc2ccc(C)cc2)C1C (stereo not shown)
Output: 6.07

Task: Name the recorded pIC50 of the compound listed here: COC(=O)C1=C(C)NC(C)=C(C(=O)OCCOc2ccc(Cl)cc2)C1C (stereo not shown)
Output: 5.00

Task: Please report the measured pIC50 for COC(=O)C1=C(C)NC(C)=C(C(=O)OCCOc2ccc([N+](=O)[O-])cc2)C1C (stereo not shown)
Output: 5.37

Task: Dear colleague, please send me the reported pIC50 for CCOC(=O)C1=C(C)NC(C)=C(C(=O)OCCCSc2ccc(Cl)cc2)C1C (stereo not shown) when you can.
Output: 5.55

Task: Complete the entry with pIC50 for COC(=O)C1=C(C)NC(C)=C(C(=O)OCCCOc2ccc(C)cc2)C1C (stereo not shown)
Output: 5.40
